Target: T1, angiotensin II type 1 receptor (AT1R) with FLAG peptide fused to its N-terminus (human, UniProt P30556 2-359)
T1 construct: also called AT1R-angiotensin II complex
T1 sequence: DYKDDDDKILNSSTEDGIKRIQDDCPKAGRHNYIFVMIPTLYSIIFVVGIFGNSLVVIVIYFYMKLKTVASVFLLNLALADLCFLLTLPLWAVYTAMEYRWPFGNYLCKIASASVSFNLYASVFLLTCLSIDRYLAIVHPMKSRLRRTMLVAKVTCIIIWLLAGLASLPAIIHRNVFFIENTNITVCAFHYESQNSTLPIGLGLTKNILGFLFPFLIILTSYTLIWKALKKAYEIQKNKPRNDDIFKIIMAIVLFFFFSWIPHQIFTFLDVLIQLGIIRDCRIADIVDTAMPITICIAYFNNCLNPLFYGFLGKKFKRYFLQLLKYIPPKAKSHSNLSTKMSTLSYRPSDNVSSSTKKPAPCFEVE
Test: radioligand competition binding assay on AT1R (nanobody stabilises agonist binding in the presence of antagonist; radioligand not named), three independent experiments; column headed Affinity
metric.name: log10(IC50) (log10 of the value in nM)

* AT110i103 (VHH) VHH: QVQLQESGGGLVQAGGSLRLSCAASGNIFDADIMGWYRQAPGKERELVASITDGGSTNYADSVKGHFTISRDNAKNTVYLQMNSLKPEDTAVYYCAAVAYPDIPTYFDYDSDHFYWGQGTQVTVSS | 0.40
* AT110i104 (VHH, also called AT110 R66H; single mutation R66H) VHH: QVQLQESGGGLVQAGGSLRLSCAASGNIFDADIMGWYRQAPGKERELVASITDGGSTNYADSVKGHFTISRDNAKNTVYLQMNSLKPEDTAVYYCAAIAYPDIPTYFDYDSDYFYWGQGTQVTVSS | 1.49
* AT110 Y113H (VHH, also called single mutation Y113H) VHH: QVQLQESGGGLVQAGGSLRLSCAASGNIFDADIMGWYRQAPGKERELVASITDGGSTNYADSVKGRFTISRDNAKNTVYLQMNSLKPEDTAVYYCAAIAYPDIPTYFDYDSDHFYWGQGTQVTVSS | 1.80
* AT110i102 (VHH) VHH: QVQLQESGGGLVQAGGSLRLSCAASGNIFDADIMGWYRQAPGKERELVASITDGGSTNYADSVKGHFTISRDNAKNTVYLQMNSLKPEDTAVYYCAAVAYPDIPTYFDYDSDYFYWGQGTQVTVSS | 0.70
* AT110i101 (VHH, also called AT110 I98V; dominant mutation 198V (so in the source)) VHH: QVQLQESGGGLVQAGGSLRLSCAASGNIFDADIMGWYRQAPGKERELVASITDGGSTNYADSVKGRFTISRDNAKNTVYLQMNSLKPEDTAVYYCAAVAYPDIPTYFDYDSDYFYWGQGTQVTVSS | 1.18
* AT110 (VHH, also called nanobody AT110) VHH: QVQLQESGGGLVQAGGSLRLSCAASGNIFDADIMGWYRQAPGKERELVASITDGGSTNYADSVKGRFTISRDNAKNTVYLQMNSLKPEDTAVYYCAAIAYPDIPTYFDYDSDYFYWGQGTQVTVSS | 1.70
